The measured values listed here are drawn from the supplement of paper PMC10567573.

B1: MATN2 (parent)
chain: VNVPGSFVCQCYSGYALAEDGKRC

Variants of: B1
Test: protein stability index of a GFP-peptide fusion (GPS, HEK-293T) (PSI 1-6); higher = more stable;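 note: lentivirally expressed fusions sorted by FACS into six bins by GFP to DsRed ratio, PSI derived from sequencing read proportions per bin multiplied by bin number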
Conditions: c terminus: a fixed tail appended
measured.attribute: protein stability index

[[record]]
sequence_data = "VNVPGSFVCQCYSGYALAEDGKFC [R23F]"
measured_attribute = "protein stability index"
data_value = 1.69

[[record]]
sequence_data = "VNVPGSFVCQCWSGYALAEDGKRC [Y12W]"
measured_attribute = "protein stability index"
data_value = 2.62

[[record]]
sequence_data = "VNLPGSFVCQCYSGYALAEDGKRC [V3L]"
measured_attribute = "protein stability index"
data_value = 2.35

[[record]]
sequence_data = "VNVPGSFVCQCYSGYALAPDGKRC [E19P]"
measured_attribute = "protein stability index"
data_value = 1.54

[[record]]
sequence_data = "VNVPGSFVCQCYSGYQLAEDGKRC [A16Q]"
measured_attribute = "protein stability index"
data_value = 1.97

[[record]]
sequence_data = "VNKPGSFVCQCYSGYALAEDGKRC [V3K]"
measured_attribute = "protein stability index"
data_value = 2.82

[[record]]
sequence_data = "VNVPGSMVCQCYSGYALAEDGKRC [F7M]"
measured_attribute = "protein stability index"
data_value = 2.7

[[record]]
sequence_data = "VNVPGSFVCQCYSGYALAEDGKRS [C24S]"
measured_attribute = "protein stability index"
data_value = 2.14

[[record]]
sequence_data = "VNVPGSFVCQCYSGYALIEDGKRC [A18I]"
measured_attribute = "protein stability index"
data_value = 1.64

[[record]]
sequence_data = "VNVPGSFVCQLYSGYALAEDGKRC [C11L]"
measured_attribute = "protein stability index"
data_value = 2.19

[[record]]
sequence_data = "VNVPGSFVCQCYSGYALATDGKRC [E19T]"
measured_attribute = "protein stability index"
data_value = 1.75

